Below, each entry is listed alongside its reported TGI.
test system: SNB-78 CNS; assay: NCI tumour cell line growth inhibition, 48 h
observable: TGI

1. N#CN1CCC2CC(=O)CCC2C1 (stereo unspecified); > 100 µM
2. CCC[CH2][Sn]1([CH2]CCC)[O]C(=O)c2cccnc2[S]1; 5.76 µM
3. CCOc1ccc(/C=C/C(=O)c2sc(NNC(C)=O)nc2C)cc1; > 100 µM
4. CSC(SC)=C1Sc2cccc(Cl)c2S1; > 100 µM
5. COc1cc(CC2c3cc(OC)c(OC)cc3CCN2C)c(C(=O)O)cc1OC (stereo unspecified); > 100 µM
6. CCCCCCCCCCCCCCCCCCCCCCC(=O)N[C@H]1CCc2cc(OC)c(OC)c(OC)c2-c2ccc(SC)c(=O)cc21; > 100 µM
7. N#CC(NNC(=O)c1ccccc1O)c1ccccc1O (stereo unspecified); > 100 µM
8. BrC(/C=N/Nc1nnc(-c2ccccc2)c(-c2ccccc2)n1)C(Br)c1ccccc1 (stereo unspecified); 78.1 µM
9. C[C@H](O)CCC(=O)c1ccoc1; > 100 µM
10. N#Cc1cccc(C2SCc3nc4ccccc4n32)c1 (stereo unspecified); > 100 µM
11. Cc1c(Cl)ccc2[s+]snc12; > 100 µM

----------
Measured TGI accompanies every entry in the list below.
tested on: TK-10 renal; experiment: NCI tumour cell line growth inhibition, 48 h
observable: TGI

1) CC(C)CC(=O)O[C@H]1C(=O)O[C@@H]2C[C@H]3[C@H](C)C(=O)C(O[C@@H]4O[C@H](CO)[C@@H](O)[C@H](O)[C@H]4O)=C[C@]3(C)[C@H]3[C@@H](O)[C@H](O)[C@]4(C(=O)O)OC[C@]32[C@@H]14; > 100 µM
2) O=C(CC1(O)C(=O)Nc2ccc(Br)cc21)c1cccc([N+](=O)[O-])c1 (centres undefined); > 100 µM
3) COc1ccc(CC(COS(=O)(=O)c2ccc(C)cc2)NS(=O)(=O)c2ccc(C)cc2)cc1 (centres undefined); 43.6 µM
4) CCOc1ccc(/C=C/C(=O)c2sc(NNC(C)=O)nc2C)cc1; > 100 µM
5) Cc1c(S(=O)(=O)/N=C(\NO)Nc2ccc(Cl)cc2)sc2ccc(Cl)cc12; 35.5 µM
6) CN(C)CCCCN1c2ccccc2Sc2ccc(N=[N+]=[N-])cc21; 24.7 µM
7) c1ccc2sc(C3(N4CCCCCC4)CCCCC3)cc2c1; 53.4 µM
8) C=C1C(=O)O[C@H]2[C@@H]3O[C@@](C)(CC/C=C(\C)CCC[C@@H]2C)[C@H](O)C[C@@H]13; 17.4 µM
9) COc1ccc2c(c1)c(-c1nc(-c3cn(C)c4ncccc34)cs1)cn2CCCCN1CCCCC1; 2.95 µM

----------
system: SN12C renal; assay: NCI tumour cell line growth inhibition, 48 h; in the data active = GI50 below about 0.43 µM; inactive = the rest
Possible outcomes: 1.0 (active), 0.0 (inactive)

1. Cc1cc(C)c(CNC(=O)c2cc(Cl)c3c(c2C)O[C@@](C)(C2CCC(N(C)C)CC2)O3)c(=O)[nH]1 (stereo not given in full); 0.0
2. CC(=O)Nc1ccc(S(=O)(=O)N2C(=O)CCC2C(=O)Nc2ccccc2)cc1 (stereo not given); 0.0
3. COc1cc(/C=C2\C(=O)Nc3ccc(O)cc32)cc(OC)c1OC; 0.0
4. COc1cccc(-c2cc(-c3ccc(Nc4nc(Nc5ccc(Cl)cc5)nc(Nc5ccc(Cl)cc5)n4)cc3)nc(N)c2C#N)c1; 0.0
5. C=CN(C(=O)N1CCN(c2cc3c(cc2F)c(=O)c(C(=O)O)cn3C2CC2)CC1)c1nc(-c2ccc(C)cc2)cs1; 0.0
6. CC1(C)CCC(c2ccc(Cl)cc2)=C(CN2CCN(c3ccc(C(=O)NS(=O)(=O)c4ccc(N[C@H](CCN5CCOCC5)CSc5ccccc5)c(S(=O)(=O)C(F)(F)F)c4)cc3)CC2)C1; 0.0
7. CN1CC[C@H](N(C)C(=O)N2CC(c3cc(F)ccc3F)=C[C@@]2(CO)c2ccccc2)[C@H](F)C1; 1.0
8. CCn1nc(C#Cc2c(C)ccc3c(Nc4ccc(Cl)cc4)nccc23)c2c(N)ncnc21; 0.0
9. FC(F)(F)c1ccc(-c2cnc(-c3nn[nH]n3)nc2NC2CCCCCC2)cc1; 0.0
10. CC1(C)N=C(N)N=C(N)N1c1cccc(CC(=O)Nc2ccccc2)c1; 0.0
11. N#CSc1c[nH]c2cccc(/C=C/C(=O)/C=C(O)/C=C/c3cccc4[nH]cc(SC#N)c34)c12; 1.0
12. Cc1nn(-c2ccccc2)c2c1[C@@H](C)[C@H]1CC3(CC4(C)C[C@@H]3C1(C)c1c(C)nn(-c3ccccc3)c1N4C)N2C (stereo not given in full); 0.0
13. CN(C)c1ccc(-c2cc(-c3cccc(NS(C)(=O)=O)c3)nc(N)c2C#N)cc1; 1.0
14. CNC(=S)N/N=C/CSC/C=N/NC(=S)NC; 0.0
15. COc1cc(C(=O)N[C@@H]2CCCN(C)C2)ccc1Nc1ncc2c(n1)N(C1CCCC1)CC(C)(C)C(=O)N2C; 1.0

meta.source: PubChem BioAssay (NCI)
